System: SF-295 CNS
ASSAY: NCI tumour cell line growth inhibition, 48 h
Examples of compounds with documented TGI follow.
ATTRIBUTE_MEASURED: TGI (µM)

smiles_str=COc1cc2c3c(n(CCCN4CCC(N)CC4)c(=O)c2cc1OC)-c1cc2c(cc1C3=O)OCO2 value_modifier== result_number=1.36
smiles_str=CC(=O)OCCOCBr value_modifier=> result_number=100
smiles_str=CCOP(=O)(OCC)c1cc(-c2ccccc2)ccc1N value_modifier=> result_number=100
smiles_str=Oc1c2c(c(O)c3ccccc13)=N[C@@H](c1ccccc1)[C@H](c1ccccc1)N=2 value_modifier=> result_number=100
smiles_str=CC1=C(C)C(=O)O[C@@H]([C@](C)(O)[C@]2(O)CC[C@@]3(O)[C@@H]4C[C@H]5O[C@]56CC=CC(=O)[C@]6(C)[C@H]4CC[C@]23C)C1 value_modifier== result_number=14.7

---

System: HT29 colon
ASSAY: NCI tumour cell line growth inhibition, 48 h; in the data active = GI50 below about 0.43 µM; inactive = the rest
Outcomes: label 1 for active, label 0 for inactive

compound=Cc1noc(C)c1-c1ccc2[nH]c(=O)n3c2c1OC[C@@H]3c1ccccn1 discrete_label="label 1"
compound=COc1ccc(NC2=C(Br)C(=O)C(C)=C(C)C2=O)cc1 discrete_label="label 0"
compound=CCCS(=O)(=O)c1nc(NC2CC2)cc(-c2ccc3c(ccn3C3CC(C)(C)NC(C)(C)C3)c2)n1 discrete_label="label 0"
compound=COc1cc(-c2cn(C)c(=O)c(C)c2C)cc(OC)c1CN1CC[C@H](N2CCN(c3ccc(N[C@H]4CCC(=O)NC4=O)cc3F)CC2)C(F)(F)C1 discrete_label="label 0"
compound=Oc1ccc(Cc2ccccc2)c2cccnc12 discrete_label="label 0"
compound=CNc1nc(NC2CCCC2)nc(Sc2ccc(OC)cc2)n1 discrete_label="label 0"
compound=N#Cc1c(-c2ccccc2)nc2c(c(-c3ccccc3)nn2-c2ccccc2)c1-c1ccc(O)cc1 discrete_label="label 0"
compound=CCCCCC(=O)Oc1ccc(/C(=C(\C)c2ccc(OC)cc2)c2ccc(OCCN3CCCCC3)cc2)cc1 discrete_label="label 0"
compound=CN1CCN(Cc2ccc(NC(=O)c3ccc(C(C)(C)C)c(C#Cc4cnc5cccnn45)c3)cc2C(F)(F)F)CC1 discrete_label="label 0"
compound=CCOC(=O)[C@@H](C)C[C@H](Cc1ccccc1)NC(=O)c1csc([C@@H](C[C@H](C(C)C)N(C)C(=O)[C@@H](NC(=O)[C@H]2CCCCN2C)C(C)(C)C)OC(C)=O)n1 discrete_label="label 1"
compound="COc1ccc(C2C(C#N)=C(N)OC3=C2CCCc2ccc(F)cc23)cc1OC (stereo not given)" discrete_label="label 0"
compound=Cc1ccc(-c2nc(C(Cl)Cl)n3nc(-c4ccccc4)cc3n2)cc1 discrete_label="label 0"
compound=Nc1nc(Nc2ccc(OCc3cccc(F)c3)cc2)c2c(n1)[nH]c1ccc(O)cc12 discrete_label="label 0"
compound=O=C1c2ccccc2-c2c1c1ccccc1c(=O)n2CCNCCCNCCn1c2c(c3ccccc3c1=O)C(=O)c1ccccc1-2 discrete_label="label 1"
compound=C=C1CC(COc2cc(Cl)nc(N)n2)C1 discrete_label="label 0"
compound=CCN(CCO)CCNc1ccc(C)c2sc3cc(Cl)ccc3c(=O)c12 discrete_label="label 0"
compound=CC(=O)[CH-]C(C)=O.CC(=O)[CH-]C(C)=O.N=CC=N.[Sn+2] discrete_label="label 0"
compound=CS(=O)(=O)Nc1ccc(-c2ccc3c(NC(=O)C4CC4)n[nH]c3c2)cc1 discrete_label="label 0"
compound=CN(C)CCNC(=O)Nc1c(C#N)[n+]([O-])c2cc(Cl)c(Cl)cc2[n+]1[O-] discrete_label="label 0"
compound=COc1cc2c3c(n(CCCN4CCC(N)CC4)c(=O)c2cc1OC)-c1cc2c(cc1C3=O)OCO2 discrete_label="label 0"

---

Examples of molecules with documented log10(TGI) follow.
System: CAKI-1 renal
ASSAY: NCI tumour cell line growth inhibition, 48 h
ATTRIBUTE_MEASURED: log10(TGI) (log10 of the value in µM)

molecule="COC(=O)NC/C=C\\c1nc(CC/C=C\\C(=O)OC2CC3CC(=O)O[C@@H](/C=C/CC(C)C)C[C@@H]4CCC(C)C(C[C@@H](OC)CC(C2)O3)O4)co1 (some centres undefined)" attribute_measured=log10(TGI) result_number=1.85
molecule=COc1cc2c(cc1OCCCOc1cc3c(cc1OC)C(=O)N1CCC[C@H]1CN3)N=C[C@@H]1CCCN1C2=O attribute_measured=log10(TGI) result_number=0.27
molecule=COc1ccccc1C(=O)c1ccc2ccccc2c1 attribute_measured=log10(TGI) result_number=1.69
molecule="C=C(C)[C@@H]1CC[C@@]2(C(=O)O)CC[C@]3(C)C(CCC4[C@@]5(C)CCC(OS(=O)(=O)c6ccccc6)C(C)(C)C5CC[C@]43C)C12 (some centres undefined)" attribute_measured=log10(TGI) result_number=1.00
molecule=CCN(CC)C(=S)SS(=O)(=O)c1ccc(C)cc1 attribute_measured=log10(TGI) result_number=1.57
molecule=CC1=C(C)C(=O)O[C@@H]([C@](C)(O)[C@]2(O)CC[C@@]3(O)[C@@H]4C[C@H]5O[C@]56CC=CC(=O)[C@]6(C)[C@H]4CC[C@]23C)C1 attribute_measured=log10(TGI) result_number=0.32

---

Test system: NCI-H522 lung
ASSAY: NCI tumour cell line growth inhibition, 48 h
Examples of compounds with documented TGI follow.
ATTRIBUTE_MEASURED: TGI

compound=COC(=O)/C=C\S/C(=C(/c1ccccc1)n1ccc(C(=O)OC)n1)c1ccccc1 result="48 µM"
compound=CCOC(=O)Cc1nc(/C(C#N)=C/c2ccco2)[nH]c(=O)c1C#N result="> 100 µM"
compound=Clc1cc(Cl)c2c(Cl)cc(Cl)c3c2c1N=S=N3 result="> 100 µM"
compound="COc1cc(CCCOC2OC(COC3OCC(O)C(O)C3O)C(O)C(O)C2O)cc2cc(-c3ccc4c(c3)OCO4)oc12 (stereo not given)" result="> 175 µM"
compound="COC(=O)c1sc2ncc3c(c2c1N)CC(C)CC3 (stereo not given)" result="> 100 µM"

---

Test system: RXF 393 renal
ASSAY: NCI tumour cell line growth inhibition, 48 h
Examples of compounds with documented TGI follow.
ATTRIBUTE_MEASURED: TGI

compound=Cc1sc(C)c(-c2ccc(CO)o2)c1-c1ccc(CO)o1 attribute_measured=TGI result="> 100 µM"
compound=CCC1(CC)C(=O)NC(=S)N=C1N attribute_measured=TGI result="> 100 µM"
compound=N#CC(C#N)=Cc1cccc(Oc2ccccc2)c1 attribute_measured=TGI result="33.4 µM"
compound=CN(C)c1nc(=NCc2ccccn2)ss1 attribute_measured=TGI result="> 10 µM"
compound=Nc1ccc(SC23CC4CC(CC(C4)C2)C3)cc1 attribute_measured=TGI result="> 100 µM"
compound="CC1OC(n2cc(F)c(=O)[nH]c2=O)C(O[Si](C)(C)C(C)(C)C)C1O[Si](C)(C)C(C)(C)C (configuration not stated)" attribute_measured=TGI result="29.5 µM"
compound=CC[P+](C#Cc1ccccc1)(c1ccccc1)c1ccccc1 attribute_measured=TGI result="4.39 µM"
compound="CC(O)CN1C(=O)NC(Cc2ccccc2)C1=O (configuration not stated)" attribute_measured=TGI result="> 100 µM"
compound=O=[N+]([O-])c1ccc2nc3c(nc2c1)-c1c2ccccc2cc2cccc-3c12 attribute_measured=TGI result="63.6 µM"
compound=COc1ccc2c(-c3cc4ccccc4o3)cc(=O)oc2c1 attribute_measured=TGI result="53.5 µM"
compound=CNc1nc(NC2CCCC2)nc(Sc2ccc(OC)cc2)n1 attribute_measured=TGI result="> 10 µM"
compound="O=C1NN=C(c2c[nH]c3ccccc23)CC1NCc1ccccc1 (configuration not stated)" attribute_measured=TGI result="> 100 µM"
compound=COc1ccc(C2=NC(C)(C)CO2)cc1 attribute_measured=TGI result="> 100 µM"
compound="C=C(C)[C@@H]1CC[C@@]2(C(=O)O)CC[C@]3(C)C(CCC4[C@@]5(C)CCC(OS(=O)(=O)c6ccccc6)C(C)(C)C5CC[C@]43C)C12 (some centres not stated)" attribute_measured=TGI result="29.7 µM"
compound=CN(C)c1nc(-c2cccs2)n2nc(-c3ccc(Cl)cc3)cc2n1 attribute_measured=TGI result="> 100 µM"
compound="COC(=O)/C(=N\\NC(=S)NN)C(C(=O)C(=O)Nc1ccccc1C(N)=O)c1nc2ccccc2[nH]c1=O (configuration not stated)" attribute_measured=TGI result="> 100 µM"
compound=Cc1cc(C)nc(NS(=O)(=O)c2ccc(Nc3c4ccccc4nc4c(C(=O)N5CCN(CCOS(C)(=O)=O)CC5)ccc(Cl)c34)cc2)n1 attribute_measured=TGI result="> 100 µM"
compound=NCCN1CCN(c2nccc(-c3ccc4ccccc4c3)n2)CC1 attribute_measured=TGI result="3.07 µM"
compound=C=CCOc1c(Br)cc(Br)cc1Br attribute_measured=TGI result="> 100 µM"
compound="COC(=O)C1=C(C(=O)OC)C2(C)CCC(=O)C1O2 (configuration not stated)" attribute_measured=TGI result="> 10 µM"
compound=c1ccc([P+](Cc2csnn2)(c2ccccc2)c2ccccc2)cc1 attribute_measured=TGI result="> 100 µM"
compound=O=c1cc(-c2ccccc2F)[nH]c2cc3c(cc12)OCO3 attribute_measured=TGI result="> 100 µM"
